Could you please report measured LDH for the items listed next?
- Organism: Rattus norvegicus
- METHOD_DESCRIPTION: Open TG-GATES - Regimen: Daily Repeat
- Type: toxicity, organism-based, Sprague-Dawley
- Design: regimen Daily Repeat, gender Male, age 6 weeks
- ASSAY_CONDITIONS: in vivo, po, 10 mg/kg, 72 h, tissue Plasma, route gavage, dose level Low, time 3 day
Answer format: value, then unit.

Kindly give each listed record's LDH.
1. CC(C)OC(=O)C(C)(C)Oc1ccc(C(=O)c2ccc(Cl)cc2)cc1 [FENOFIBRATE]
2. CC1=C(/C=C/C(C)=C/C=C/C(C)=C/CO)C(C)(C)CCC1
3. CN(C)CCCN1c2ccccc2CCc2ccccc21
4. CN(C)CCN(Cc1cccs1)c1ccccn1

# output
74 IU/L
262.6 IU/L
63.4 IU/L
181 IU/L

###

- Species on record: Rattus norvegicus
- METHOD_DESCRIPTION: Open TG-GATES - Regimen: Single
- Assay type: toxicity, organism-based, Sprague-Dawley
- Design: regimen Single, gender Male, age 6 weeks
- ASSAY_CONDITIONS: in vivo, po, 300 mg/kg, 6 h, tissue Blood, route gavage, dose level Middle
EXPERIMENTAL_ENDPOINT: PT (s)
Numbers only, in s.

Worked cases, answers included:
COC1=CC(=O)C[C@@H](C)[C@]12Oc1c(Cl)c(OC)cc(OC)c1C2=O ... 13.1
CCOC(=O)CCC(=O)O[C@H]1[C@H](O[C@@H]2[C@@H](C)[C@H](O[C@H]3C[C@@](C)(OC)[C@@H](O)[C@H](C)O3)[C@@H](C)C(=O)O[C@H](CC)[C@@](C)(O)[C@H](O)[C@@H](C)C(=O)[C@H](C)C[C@@]2(C)O)O[C@H](C)C[C@@H]1N(C)C [ERYTHROMYCIN ETHYLSUCCINATE] ... 15.7
COc1ccc2[nH]c([S+]([O-])Cc3ncc(C)c(OC)c3C)nc2c1 (centres undefined) ... 12.9

Attention now shifts to the item below.
# input What measured PT goes with `NC(N)=Nc1nc(CSCCC(N)=NS(N)(=O)=O)cs1` ?
# output 12.8

###

- Organism: Rattus norvegicus
- METHOD_DESCRIPTION: Open TG-GATES - Regimen: Single
- Format: toxicity, organism-based, Sprague-Dawley
- Design: regimen Single, gender Male, age 6 weeks
- ASSAY_CONDITIONS: in vivo, po, 0 mg/kg, 6 h, tissue Plasma, route gavage, dose level Control
EXPERIMENTAL_ENDPOINT: CRE (mg/dL)
Numbers only, in mg/dL.

Field: example entries. Status: answers known.
COc1cc2c(c(OC)c1OC)-c1ccc(OC)c(=O)cc1[C@@H](NC(C)=O)CC2 ... 0.5
CCOc1ccc(NC(=O)CC(C)O)cc1 (stereo not drawn) ... 0.2
CCCNC(=O)NS(=O)(=O)c1ccc(Cl)cc1 [CHLORPROPAMIDE] ... 0.2
Cc1ccc(C)c(OCCCC(C)(C)C(=O)O)c1 ... 0.2
CC(C)OC(=O)C(C)(C)Oc1ccc(C(=O)c2ccc(Cl)cc2)cc1 [FENOFIBRATE] ... 0.2
CN1C(=O)CN=C(c2ccccc2)c2cc(Cl)ccc21 ... 0.5
CCOC(=O)CCC(=O)O[C@H]1[C@H](O[C@@H]2[C@@H](C)[C@H](O[C@H]3C[C@@](C)(OC)[C@@H](O)[C@H](C)O3)[C@@H](C)C(=O)O[C@H](CC)[C@@](C)(O)[C@H](O)[C@@H](C)C(=O)[C@H](C)C[C@@]2(C)O)O[C@H](C)C[C@@H]1N(C)C [ERYTHROMYCIN ETHYLSUCCINATE] ... 0.2
NNC(=O)c1ccncc1 ... 0.4

Count: 6. Required value per item: CRE.
1. CC/C(=C(\c1ccccc1)c1ccc(OCCN(C)C)cc1)c1ccccc1
2. CN(C)CCN(Cc1cccs1)c1ccccn1
3. COC1=CC(=O)C[C@@H](C)[C@]12Oc1c(Cl)c(OC)cc(OC)c1C2=O
4. O=C(CCCN1CCC(O)(c2ccc(Cl)cc2)CC1)c1ccc(F)cc1
5. C[C@@H]1C[C@H]2[C@@H]3CCC4=CC(=O)C=C[C@]4(C)[C@@]3(F)[C@@H](O)C[C@]2(C)[C@@]1(O)C(=O)CO
6. NC(N)=Nc1nc(CSCCC(N)=NS(N)(=O)=O)cs1

# output
1. 0.2
2. 0.2
3. 0.3
4. 0.5
5. 0.4
6. 0.4

Please give CRE, item by item, for the list that follows.
1. COc1ccc2[nH]c([S+]([O-])Cc3ncc(C)c(OC)c3C)nc2c1 (stereo not drawn)
2. CN(C)CCCN1c2ccccc2CCc2ccccc21
3. CN(C)CCCN1c2ccccc2CCc2ccc(Cl)cc21
4. CC1=C(/C=C/C(C)=C/C=C/C(C)=C/CO)C(C)(C)CCC1

# output
1. 0.3
2. 0.2
3. 0.2
4. 0.1
